Attribution: patent US20210220408A1

target: aryl hydrocarbon receptor (AHR) (Homo sapiens, UniProt P35869); test: DRE-Luciferase reporter high-throughput screen (AHR antagonist, VAF347-activated)
Sequence (P35869 11-848): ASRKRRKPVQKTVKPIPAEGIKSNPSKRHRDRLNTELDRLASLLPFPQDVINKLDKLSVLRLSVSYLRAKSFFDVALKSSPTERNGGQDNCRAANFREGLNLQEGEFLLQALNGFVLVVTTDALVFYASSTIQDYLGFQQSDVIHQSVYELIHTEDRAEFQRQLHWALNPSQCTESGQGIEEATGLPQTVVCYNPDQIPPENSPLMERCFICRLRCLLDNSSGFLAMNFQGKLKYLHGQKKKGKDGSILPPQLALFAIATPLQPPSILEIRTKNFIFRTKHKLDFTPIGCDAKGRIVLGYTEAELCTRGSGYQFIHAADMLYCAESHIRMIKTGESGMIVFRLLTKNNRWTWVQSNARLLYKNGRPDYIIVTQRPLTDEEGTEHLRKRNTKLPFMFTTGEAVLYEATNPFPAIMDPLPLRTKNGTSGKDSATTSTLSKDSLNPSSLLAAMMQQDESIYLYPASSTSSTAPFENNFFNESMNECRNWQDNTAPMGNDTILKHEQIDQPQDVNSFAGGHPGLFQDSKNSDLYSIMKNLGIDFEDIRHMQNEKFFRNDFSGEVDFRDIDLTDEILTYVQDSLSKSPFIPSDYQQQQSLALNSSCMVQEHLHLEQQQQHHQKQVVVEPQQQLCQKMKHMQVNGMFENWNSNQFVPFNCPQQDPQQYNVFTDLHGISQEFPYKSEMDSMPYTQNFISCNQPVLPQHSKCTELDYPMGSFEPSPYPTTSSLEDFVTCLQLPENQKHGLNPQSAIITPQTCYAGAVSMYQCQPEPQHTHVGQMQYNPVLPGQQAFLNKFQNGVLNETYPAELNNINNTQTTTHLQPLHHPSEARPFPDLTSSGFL
pIC50: −log10 of the molar value.
reported property: pIC50

// solved cases for pIC50 follow
# compound, pIC50
data = [
    ("CCCNC(=O)c1cc2cc3ccc(C)cc3nc2o1 [184A]", "5.70 to 6.00"),
    ("CSc1nccc(NC(=O)c2cccc(C(F)(F)F)c2)n1 [14A]", "< 5.70"),
    ("CCCn1ncc(C(=O)Nc2ccc(N3CCCCC3)c(F)c2)c1C", "6.00 to 6.30"),
    ("CC(=O)c1cnc(N2CCN(c3cccc(Cl)c3)CC2)nc1C [69A]", "5.70 to 6.00"),
    ("Cc1ccc(Nc2cc(-c3ccccc3)nc3ncnn23)cc1", "6.00 to 6.30"),
    ("O=c1ccc2ccc(OCc3ccc(F)cc3Cl)cc2o1 [111B]", "6.30 to 6.70"),
]

# input compound: Cc1cc2ccccc2n2c(SCC(=O)Nc3ccccc3F)nnc12 [187A] ; wanted: its pIC50
# output < 5.70

# input Same read-out for O=C(Nc1nc(-c2ccc(F)cc2)n[nH]1)c1cc(F)cc(F)c1 [14B] ?
# output 6.00 to 6.30

# input Same read-out for FC(F)(F)c1cnc(-c2cnc(-c3ccccn3)nc2)c(Cl)c1 ?
# output 6.00 to 6.30

# input Same read-out for COc1ccc(Sc2nccc(N(C)C)c2C#N)cc1 [95A] ?
# output < 5.70

# input Same read-out for COc1ccc(Nc2nn(-c3ccccc3)c3c2C(=O)CCC3)cc1 [177A] ?
# output 5.70 to 6.00

# input Same read-out for Cc1cc(C)n(CC(C)Nc2ccc(Cl)c(C#N)n2)n1 (stereo not drawn) [91A] ?
# output 5.70 to 6.00

# input Same read-out for Fc1ccc(/C=N\N2CCN(c3ccccn3)CC2)cc1 ?
# output 6.00 to 6.30

# input Same read-out for COc1ccc(Br)cc1-c1nc(Cn2cnc(C#N)n2)cs1 [35B] ?
# output < 5.70

# input Same read-out for Nc1nccc(-c2cc(-c3cccc(C(F)(F)F)c3)no2)n1 [80B] ?
# output 6.00 to 6.30

# input Same read-out for CCN(CC)C(=O)c1nc2c(s1)CCN(c1ncccn1)CC2 ?
# output 6.00 to 6.30

# input Same read-out for O=C(Cc1cccc(F)c1)Nc1ccc(-c2nccs2)cc1 ?
# output 6.00 to 6.30

# input Same read-out for Cc1nc2nc(SCc3ccc(Cl)cc3)nn2c(C)c1Cl [74B] ?
# output 5.70 to 6.00

* * *

tested on: mobilized peripheral blood CD34+ cells; experiment: CD34+ expansion assay; type: cell-based; conditions: Homo sapiens; read-out: CD34 Frequency EC50
pEC50: −log10 of the molar value.
reported property: pEC50

# query smiles, pEC50
records = [
    ("O=C1CN(C(=O)c2sc3ccccc3c2Cl)c2ccccc2N1", "5.30 to 6.00"),
    ("Cc1ccc(-c2c(C)sc(NC(=O)c3cccnc3)c2C(N)=O)cc1", "5.30 to 6.00"),
    ("CSc1ccccc1C(=O)Nc1ccc2[nH]c(-c3ccc(F)cc3)nc2c1", "> 6.30"),
]

# input Which measured pEC50 belongs to FC(F)(F)c1nc(N2CCN(c3ncccn3)CC2)c2ccccc2n1 , tested on mobilized peripheral blood CD34+ cells?
# output ≤ 5.30

# input Same read-out for COc1ccccc1-c1nnc(SCc2cccc3ccccc23)n1C ?
# output 5.30 to 6.00

# input Same read-out for CCC(=O)N1CCc2cc(C(=O)Nc3ccn(CCc4ccccn4)n3)ccc21 ?
# output 5.30 to 6.00

# input Same read-out for Cc1nc(-c2ccccc2)sc1C(=O)N/N=C/c1cc2ccccc2o1 ?
# output 5.30 to 6.00

# input Same read-out for Cc1ccc(-c2nc(-c3cc(C)on3)no2)cc1 ?
# output 5.30 to 6.00

# input Same read-out for CC(C)c1cc(-c2nnc3sc(-c4ccccn4)nn23)[nH]n1 ?
# output 6.00 to 6.30
